assay: basal 3T3-L1 adipocyte mitochondrial potential changes, profiling panel, cell-based, JC-1 fluorescence, 3T3-L1 adipocytes, 24 h, 100 nL compound (AID 1168); conditions: JC-1 mitochondrial fluorescence, higher = more signal, called active from +8 up or from −8 down
Tick 1 if z-score is 0.2 or greater. Tick 0 if z-score is less than 0.2.

Answered cases to consult:
NC(=O)[C@H]1[C@@H]2C(=O)O[C@@H](c3ccccc3)[C@@H](c3ccccc3)N2[C@@H](c2ccc(O)cc2)[C@]12C(=O)Nc1ccc(C#CCCO)cc12 = 0
C[C@H]1COC(=O)[C@@H]2CCCN2C(=O)[C@@H](C)COC(=O)[C@@H]2CCCN2C1=O = 0
C=CC[C@]1(C(=O)NCC(O)CO)N=C(c2ccc(OCCCO)cc2)O[C@H]1c1ccccc1 (stereo partly specified) = 0
Cc1cc(C)c(C(O)C2C=CC3C(=O)N(C)C(=O)C3N2N2CCCCC2)c(C)c1 (stereo unspecified) = 0

Consider the additional molecule presented here.
### Prompt Given the entry COc1ccc(-c2ccccc2[C@@H]2N[C@H](C(=O)O)CC[C@H]2C)cc1 , answer whether its z-score meets or surpasses 0.2.
### Response 1

====

Each record here notes measured composite z-score.
test system: XIP peptide (Xip251-270); assay: small-molecule binders of XIP peptide, primary screen, biochemical, small-molecule microarray, fluorescence 635/667 nm, 0.5 µg/mL protein (AID 1183); conditions: small-molecule microarray binding, fluorescence 635 nm; higher = more signal
Reply: number alone, nothing else.

Worked set:
O=C1O[C@H](c2ccccc2)[C@H](c2ccccc2)N2[C@H]1[C@@H](C(=O)NC[C@H](O)c1ccccc1)[C@]1(C(=O)Nc3ccc(C#CC4=CCCCC4)cc31)[C@H]2c1ccc(OCCO)cc1 = 0.658
CO[C@H]1O[C@H](CO)[C@@H](OC(=O)Nc2ccccc2)[C@H](OC(=O)Nc2ccc3c(c2)OCO3)[C@@H]1OC(=O)Nc1ccc2c(c1)OCO2 = 0.863
C=C(COC)/C(=C/C[C@@H](OC(=O)c1ccncc1)c1ccc(OCCO)cc1)c1cc(C(=O)OC)ccc1OC = 0.749
C=CCc1cccc([C@@H]2[C@@H](C)CC[C@H]3C(=O)N4[C@H](c5cccc(CC=C)c5)[C@@H](C)CC[C@H]4C(=O)N23)c1 = 0.336

### Prompt Give XIP peptide (Xip251-270) composite z-score for COc1ccc(C(=O)Nc2ccc(CN3C(=O)[C@]4(O[C@H](CCn5cc(CCO)nn5)[C@@H]([Si](C)(C)c5ccc(OC)cc5)[C@@H]4C)c4ccccc43)cc2)cc1
### Response 0.621

### Prompt Give XIP peptide (Xip251-270) composite z-score for CCCCO[C@H]1C[C@H]2C(Br)=C[C@@]1(CO)C(=O)[C@]21CO1
### Response -0.329

====

test system: glycogen synthase kinase-3 (GSK3A per assay name; protocol says GSK3B); test: GSK3 binders on small-molecule microarrays, primary screen, biochemical, small-molecule microarray, 635 nm fluorescence, GSK3A (AID 1103); settings: small-molecule microarray binding, fluorescence 635 nm; higher = more signal; also: the record names both GSK3A and GSK3B
Each record here notes measured composite z-score.
Reply: number alone, nothing else.

Worked set:
C[C@@H]1C=CCC(=O)OC[C@H]2O[C@@H](C=C[C@@H]2O)[C@H](C)C=CCC(=O)OC[C@H]2O[C@H]1C=C[C@@H]2O = 1.18
C=CCC(OC(C)=O)[C@@H]1[C@@H](N(Cc2ccc(-c3ccccc3)cc2)C(=O)c2ccc(C)cc2)c2cc(OCCCO)ccc2N1C(=O)c1ccc(-c2ccccc2)cc1 (stereo partly drawn) = -0.176
CC(=O)Nc1ccc([C@H]2[C@H](C)CC[C@H]3C(=O)N4[C@@H](CC[C@@H](C)[C@@H]4c4ccc(NC(C)=O)cc4)C(=O)N32)cc1 = 1.17
CCCC=C(CCC)[C@@H](NC(=O)c1ccccc1)c1ccccc1 = -1.87
C[C@@H]1CC[C@H]2C(=O)N3[C@@H](CC[C@@H](C)[C@@H]3c3cccc(N4CCOCC4)c3)C(=O)N2[C@H]1c1cccc(N2CCOCC2)c1 = 0.513

### Prompt Using the record for C=C(CCCC)/C(=C/C[C@H](OC(=O)c1ccncc1)c1cccc(OCCO)c1)c1cc(C(=O)OC)ccc1OC , report its composite z-score.
### Response 0.174

### Prompt Using the record for COC(=O)c1c(CC[C@@H](CO)NC(=O)N[C@H](Cn2cc(-c3cncn3C)nn2)C(C)C)oc(C(C)=O)c1C(=O)OC , report its composite z-score.
### Response 0.861

### Prompt Using the record for CO[C@]12C=C(Br)[C@@H](C[C@@H]1c1ccccc1)[C@@]1(CO1)C2=O , report its composite z-score.
### Response 0.497

### Prompt Using the record for O=C1C2C=CC(C(O)C(c3ccccc3)c3ccccc3)N(Nc3ccc([N+](=O)[O-])cc3)C2C(=O)N1c1ccccc1 (stereo not drawn) , report its composite z-score.
### Response 1.32

====

molecular target: Focal adhesion kinase 1 (Homo sapiens); experiment: small-molecule microarray binders of FAK, primary screen, biochemical, 635/667 nm fluorescence, BSA, DTT (AID 1130); details: PTK2 binding, 635 nm fluorescence, higher = more signal;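 also: composite of spot emission at 667 nm and signal to noise over triplicate slides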
Each record here notes measured composite z-score.
Reply: number alone, nothing else.

Worked set:
C[C@H]1COC(=O)[C@H](Cc2ccccc2)NC(=O)[C@@H](C)COC(=O)[C@H](Cc2ccccc2)NC1=O = 0.327
CCOC(=O)C1=CC[C@@H](c2ccccc2)N(S(=O)(=O)c2ccc(C)cc2)[C@H]1C = 0.147
O=C/C=C/c1ccc(/C=C/c2ccccc2)cc1 = -0.313

### Prompt Using the record for COc1cc2c(cc1OC)CN(C(=O)[C@@H]1[C@H]3C(=O)O[C@H](c4ccccc4)[C@H](c4ccccc4)N3[C@H](c3ccccc3OCCO)[C@@]13C(=O)Nc1ccccc13)CC2 , report its composite z-score.
### Response 0.702

### Prompt Using the record for Cc1ccc([C@@H]2CC=C(C(=O)O)[C@H](c3ccccc3)N2S(=O)(=O)c2ccc(C)cc2)cc1 , report its composite z-score.
### Response 0.574

====

target: Dihydroorotate dehydrogenase (quinone), mitochondrial (Plasmodium falciparum (isolate 3D7)); assay: PfDHODH enzyme inhibitors, primary screen, biochemical, C-terminal His tag, absorbance 600 nm (AID 1175); details: DCIP absorbance 600 nm, higher = more signal, called active from +8 up or from −8 down;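 also: recombinant parasite enzyme with a five histidine tag at its C terminus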
attributeMeasured: composite z-score
Reply: number alone, nothing else.

### Prompt Using the record for CN(C)c1ccc(C(O)C2C=CC3C(=O)NC(=O)C3N2Nc2ccc(Cl)cc2Cl)cc1 (configuration not stated) , report its composite z-score.
### Response 0.438

### Prompt Using the record for COCCCNC(=O)[C@@H]1c2ccccc2C(=O)N(CC23CC4CC(CC(C4)C2)C3)[C@H]1c1ccc(CO)cc1 , report its composite z-score.
### Response 0.297

### Prompt Using the record for COCCOC(=O)N1C(=O)[C@@]2(c3cc(C#CCNC(N)=O)ccc31)[C@H](c1ccccc1OCCO)N1[C@H](c3ccccc3)[C@H](c3ccccc3)OC(=O)[C@H]1[C@@H]2C(=O)NC[C@H](O)c1ccccc1 , report its composite z-score.
### Response 1.03

### Prompt Using the record for CCN1C(C)=C(C(=O)OC)[C@@H](c2ccccc2)N2C(=O)[C@@]3(C(=O)OC)O[C@@]12[C@@H]1C(=O)CCC[C@@H]13 , report its composite z-score.
### Response -1.39

### Prompt Using the record for NC(=O)NCC#Cc1ccc2c(c1)[C@]1(C(=O)N2)[C@H](C(N)=O)[C@H]2C(=O)O[C@H](c3ccccc3)[C@H](c3ccccc3)N2[C@@H]1c1ccccc1OCCO , report its composite z-score.
### Response -0.793

### Prompt Using the record for COC(=O)C1=C(C)N(Cc2ccccc2)c2c(C(=O)OC)c(C(=O)OC)c(C(=O)OC)c(=O)n2[C@@H]1c1ccccc1 , report its composite z-score.
### Response 0.295

### Prompt Using the record for C[C@H]1COC(=O)[C@@H]2CCCN2C(=O)[C@@H](C)COC(=O)[C@@H]2CCCN2C1=O , report its composite z-score.
### Response -0.0223

====

test system: Lefty1; test: Lefty1 binders on small-molecule microarrays, primary screen, biochemical, small-molecule microarray, 635/667 nm fluorescence (AID 1139); conditions: small-molecule microarray binding, fluorescence 635/667; higher = more signal
# class assignment by measured composite z-score: L: < 0.1; M: ≥ 0.1 and < 0.6; H: ≥ 0.6

Answered cases to consult:
CC(C)CN1C(=O)[C@@]2(Cc3ccccc31)c1ccccc1C(=O)N(C1CCCCC1)[C@H]2c1ccc(CO)cc1 = L
O=C1O[C@H](c2ccccc2)[C@H](c2ccccc2)N2[C@H]1[C@@H](C(=O)NC[C@H](O)c1ccccc1)[C@]1(C(=O)Nc3ccc(C#CC4=CCCCC4)cc31)[C@H]2c1ccc(OCCO)cc1 = H
O=C(NCC(O)CO)[C@]1(Cc2ccccc2)N=C(c2ccc(OCCCO)cc2)O[C@@H]1c1ccccc1 (some centres undefined) = L

### Prompt Which category does the recorded composite z-score put COc1ccc([C@H]2C[C@H]3C(Br)=C[C@]2(OC)C(=O)[C@]32CO2)cc1 in?
### Response L

### Prompt Which category does the recorded composite z-score put CC(C)[Si](OCCCNS(=O)(=O)c1ccc(Br)cc1)(C(C)C)C(C)C in?
### Response M

### Prompt Which category does the recorded composite z-score put CC(C)N1CC=CC23O[C@@H]4/C=C\CCCOC(=O)C4[C@H]2C(=O)N(CCO)[C@@H]3C1=O (some centres undefined) in?
### Response M

### Prompt Which category does the recorded composite z-score put COc1cccc([C@@H]2[C@@H](C)CC[C@H]3C(=O)N4[C@H](c5cccc(OC)c5)[C@@H](C)CC[C@H]4C(=O)N23)c1 in?
### Response M

### Prompt Which category does the recorded composite z-score put C[C@H]1COC(=O)[C@H](Cc2ccccc2)NC(=O)[C@@H](C)COC(=O)[C@H](Cc2ccccc2)NC1=O in?
### Response H

### Prompt Which category does the recorded composite z-score put O=C1c2ccccc2[C@](Cc2ccccc2I)(C(=O)NCC(F)(F)F)[C@H](c2ccc(CO)cc2)N1Cc1ccccc1C(F)(F)F in?
### Response M

### Prompt Which category does the recorded composite z-score put CO[C@H]1COC(=O)[C@@H](OCc2ccccc2)C=C[C@H](C)[C@@H](OC)COC(=O)[C@H](OCc2ccccc2)C=C[C@@H]1C in?
### Response H

### Prompt Which category does the recorded composite z-score put C=CCC(OC(C)=O)[C@@H]1[C@@H](N(Cc2cccc3ccccc23)C(=O)c2ccc(C)cc2)c2cc(OCCCO)ccc2N1C(=O)c1ccc(-c2ccccc2)cc1 (some centres undefined) in?
### Response L

### Prompt Which category does the recorded composite z-score put O=C1C2C=CC(C(O)C(c3ccccc3)c3ccccc3)N(Nc3ccc([N+](=O)[O-])cc3)C2C(=O)N1c1ccccc1 (centres undefined) in?
### Response M

### Prompt Which category does the recorded composite z-score put C=CCNC(=O)[C@H]1[C@@H]2C(=O)O[C@@H](c3ccccc3)[C@@H](c3ccccc3)N2[C@@H](c2ccccc2OCCO)[C@]12C(=O)N(C(=O)OCCOC)c1ccc(C#CCNC(N)=O)cc12 in?
### Response H

### Prompt Which category does the recorded composite z-score put CC(=O)NCCCC[C@@H]1NC(=O)[C@@H]2C[C@H](C(=O)NCCCCCCN(C)C)[C@H](c3ccc(O)cc3)N2C1=O in?
### Response H
